Below, each entry is listed alongside its reported log10 of IC50.
Target: porcine gastric H+/K+-ATPase (Sus scrofa)
Construct: prepared from mucous membrane in fresh porcine stomachs by homogenization
Sequence (P19156 2-1034 limits assumed): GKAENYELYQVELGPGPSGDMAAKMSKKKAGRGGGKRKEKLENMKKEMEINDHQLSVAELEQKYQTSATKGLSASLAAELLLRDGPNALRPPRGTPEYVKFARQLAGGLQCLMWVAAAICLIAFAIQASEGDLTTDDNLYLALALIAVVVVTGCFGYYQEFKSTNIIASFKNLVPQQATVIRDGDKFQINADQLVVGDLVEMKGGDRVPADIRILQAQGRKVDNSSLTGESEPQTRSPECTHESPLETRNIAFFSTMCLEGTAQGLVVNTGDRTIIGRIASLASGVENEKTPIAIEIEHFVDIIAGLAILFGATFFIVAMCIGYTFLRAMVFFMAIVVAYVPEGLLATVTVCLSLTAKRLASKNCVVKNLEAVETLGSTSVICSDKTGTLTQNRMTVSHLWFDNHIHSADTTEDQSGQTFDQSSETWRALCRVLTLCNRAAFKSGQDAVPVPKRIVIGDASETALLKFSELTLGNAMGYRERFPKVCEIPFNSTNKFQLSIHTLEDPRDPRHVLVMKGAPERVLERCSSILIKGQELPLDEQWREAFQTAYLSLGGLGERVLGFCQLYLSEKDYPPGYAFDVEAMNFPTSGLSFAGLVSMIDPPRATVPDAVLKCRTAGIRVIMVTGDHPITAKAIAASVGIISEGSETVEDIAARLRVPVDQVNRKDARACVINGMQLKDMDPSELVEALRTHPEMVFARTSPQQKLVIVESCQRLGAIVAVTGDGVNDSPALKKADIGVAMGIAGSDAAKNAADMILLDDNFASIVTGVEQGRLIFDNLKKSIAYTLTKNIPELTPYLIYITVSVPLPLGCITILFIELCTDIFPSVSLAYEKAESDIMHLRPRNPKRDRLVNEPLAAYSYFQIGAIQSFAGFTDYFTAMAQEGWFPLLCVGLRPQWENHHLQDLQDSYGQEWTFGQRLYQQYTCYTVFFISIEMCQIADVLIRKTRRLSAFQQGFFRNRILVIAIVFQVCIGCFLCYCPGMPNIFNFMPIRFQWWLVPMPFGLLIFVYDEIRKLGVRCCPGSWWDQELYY
Sequence (P18434 whole entry partner): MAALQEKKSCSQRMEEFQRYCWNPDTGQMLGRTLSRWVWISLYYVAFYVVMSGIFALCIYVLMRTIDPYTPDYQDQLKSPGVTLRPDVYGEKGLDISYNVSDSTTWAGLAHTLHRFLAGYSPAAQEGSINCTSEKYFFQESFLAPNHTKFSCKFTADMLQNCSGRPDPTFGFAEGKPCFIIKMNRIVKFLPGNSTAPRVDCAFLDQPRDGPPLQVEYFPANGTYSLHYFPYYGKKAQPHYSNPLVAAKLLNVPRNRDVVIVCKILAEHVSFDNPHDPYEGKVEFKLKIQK
Experiment: Ion-tight porcine gastric H+/K+-ATPase inhibition
Conditions: ion-tight gastric vesicles, 150 mM KCl, valinomycin, pH 7.4, 37° C.
Observation Type: log10 of IC50 (log10 of the value in µM)

| Compound | Observation Type | Number |
| --- | --- | --- |
| Cc1nc2c(OC3CCOc4ccccc43)cc(C(=O)N(C)C)cc2n1C (centres unmarked) | log10 of IC50 | -0.25 |
| Cc1nc2c(OC3CCOc4cc(F)cc(F)c43)cc(C(=O)N(C)C)cc2n1C (single isomer, unassigned; (-)) [Example 6] | log10 of IC50 | -0.68 |
| Cc1nc2c(OC3CCOc4cc(F)cc(F)c43)cc(C(=O)N(C)C)cc2n1C (single isomer, unassigned; (+)) [Example 7] | log10 of IC50 | -0.66 |
| Cc1nc2c(OC3CCOc4cc(F)ccc43)cc(C(=O)N(C)C)cc2n1C (single isomer, unassigned; (-)) [Example 3] | log10 of IC50 | -0.36 |
| Cc1nc2c(OC3CCOc4cc(F)ccc43)cc(C(=O)N(C)C)cc2n1C (racemic) [Example 2] | log10 of IC50 | -1.16 |
| Cc1nc2c(OC3CCOc4cc(F)cc(F)c43)cc(C(=O)N3CC(C)(O)C3)cc2n1C (centres unmarked) | log10 of IC50 | -0.32 |
| Cc1nc2c(OC3CCOc4cc(F)cc(F)c43)cc(C(=O)N3CCCC3)cc2n1C (centres unmarked) | log10 of IC50 | -0.23 |
| Cc1nc2c(OC3CCOc4ccccc43)cc(C(=O)N3CCC[C@@H]3CO)cc2n1C (some centres unmarked) | log10 of IC50 | -0.01 |
| CNC(=O)c1cc(OC2CCOc3cc(F)cc(F)c32)c2nc(C)n(C)c2c1 (racemic) [Example 19] | log10 of IC50 | -0.17 |
| CC(=O)N1CCN(C(=O)c2cc(OC3CCOc4ccccc43)c3nc(C)n(C)c3c2)CC1 (centres unmarked) | log10 of IC50 | -0.85 |
| Cc1nc2c(OC3CCOc4ccccc43)cc(C(=O)N3CC[C@@H](O)C3)cc2n1C (some centres unmarked) | log10 of IC50 | -0.92 |

// data source = patent US7718809B2
